B1: STK38L (parent)
chain: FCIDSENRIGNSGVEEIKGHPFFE

- Variants of: B1
- protocol notes: protein stability index of a GFP-peptide fusion (GPS, HEK-293T) (PSI 1-6); higher = more stable;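 also: lentivirally expressed fusions sorted by FACS into six bins by GFP to DsRed ratio, PSI derived from sequencing read proportions per bin multiplied by bin number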
- recorded conditions: c terminus: a fixed tail appended
protein stability index values by entry

Below: 5 variants and their reported protein stability index.
* G13T | 2.75
* F23Y | 3.35
* P21S | 3.73
* N7D | 2.43
* F23C | 1.8

Using the record for V14H , state its measured protein stability index. 2.06

Using the record for I17K , state its measured protein stability index. 2.35

Using the record for S12G , state its measured protein stability index. 1.91

Using the record for S5K , state its measured protein stability index. 1.9

Using the record for E15Q , state its measured protein stability index. 1.57

Using the record for K18Q , state its measured protein stability index. 2.2

Using the record for F1A , state its measured protein stability index. 4.85

Using the record for S5V , state its measured protein stability index. 1.9

Using the record for S12V , state its measured protein stability index. 2

Using the record for G10F , state its measured protein stability index. 1.57

Using the record for K18Y , state its measured protein stability index. 2.16

Using the record for E24V , state its measured protein stability index. 1.71

Using the record for G10P , state its measured protein stability index. 2.31

Using the record for E15F , state its measured protein stability index. 1.73

Using the record for F22K , state its measured protein stability index. 4.49

Using the record for F1T , state its measured protein stability index. 4.42

Using the record for F22D , state its measured protein stability index. 5.23

Cited source for all entries: the supplement of paper PMC10567573
